Every entry's value here was drawn from patent US20260242478A1.

Provide the reported phage binding ELISA signal of each item.
# Assayed target: T1, 006 PSMA Fab (biotinylated (site not stated))
# T1 construct: Biotinylated PSMA Fab captured on neutravidin coated plates in the panning ELISA; also called Anti-PSMA Fab
# Procedure details: clonal phage ELISA on biotinylated PSMA Fab captured on neutravidin plates, anti-M13-HRP detection;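 note: crude clonal phage supernatants added to wells preincubated with PSMA antigen or with blocking buffer only (no wash between), briefly incubated, then washed before detecting bound phage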
Where no end group is shown, it is not given here.

Looking for the measured phage binding ELISA signal of VEKWCTPAWMCSTS (Clone of the Peptide-180 optimisation library, tested as clonal phage supernatant (peptide fused to pIII of the bacteriophage)) [Phage-2766] , can you help?
0.657

Request: PVKMCTPAWMCSER (Clone of the Peptide-180 optimisation library, tested as clonal phage supernatant (peptide fused to pIII of the bacteriophage)) [Phage-2760]
0.67

Request: HAIWCIPEWMCAFN (cysteine pairing not given here; also: fused to pIII, displayed on bacteriophage, Clone of the Peptide-180 optimisation library, tested as clonal phage supernatant (peptide fused to pIII of the bacteriophage)) [Phage-2765]
0.658
